Measured target: WDR5 (Homo sapiens (Human), UniProt P61964)
Measurement protocol: Surface Plasmon Resonance (SPR) assay, KD and residence time
Assay type: binding
Experimental conditions: surface plasmon resonance (SPR); read-out: WDR5 binding affinity (KD)
pKd: −log10 of the molar value.
Quantity name: pKd

I: C[C@@H]1CN(c2cc(F)c(-c3cnc(N4CCOC[C@H]4C)nc3)cc2NC(=O)c2ccc(F)cc2C(F)(F)F)CCN1C (stereo in doubt)
II: C[C@@H]1CN(c2cc(F)c(C3=CCCN(c4ncc(CN5CCN(C)CC5)cn4)C3)cc2NC(=O)c2c[nH]c(=O)cc2C(F)(F)F)C[C@H](C)N1C
III: COc1cnc(N2CCC=C(c3cc(NC(=O)c4c[nH]c(=O)cc4C(F)F)c(N4C[C@@H](C)N(C)[C@@H](C)C4)cc3F)C2)nc1
Prompt line: Method: rank(items above, key=pKd, ascending=True) # list labels per requested ordering
Response line: III, I, II

====

Measured target: WDR5 (Homo sapiens (Human))
Measurement protocol: Surface Plasmon Resonance (SPR) assay, KD and residence time
Assay type: binding
Experimental conditions: surface plasmon resonance (SPR); read-out: WDR5 binding affinity (KD)
Quantity name: Kd (nM)

{"Structure string": "C[C@@H]1CN(c2cc(F)c(C3=CCN(C(=O)OC4CC(F)(F)C4)CC3)cc2NC(=O)c2c[nH]c(=O)cc2C(F)F)C[C@H](C)N1C", "Kd, nM": 3.47}
{"Structure string": "C[C@@H]1CN(c2cc(F)c(-c3ncc(C(=O)N(C)CC4CC4)s3)cc2NC(=O)c2c[nH]c(=O)cc2C(F)(F)F)C[C@H](C)N1C", "Kd, nM": 2.59}
{"Structure string": "C[C@@H]1CN(c2cc(F)c(-c3cnc(N4CCOCC4)nc3)cc2NC(=O)c2c[nH]c(=O)cc2C(F)(F)F)C[C@H](C)[N+]1(C)C", "Kd, nM": 3.54}

====

Measured target: WDR5 (Homo sapiens (Human), UniProt P61964)
Measurement protocol: Surface Plasmon Resonance (SPR) assay, KD and residence time
Type: binding
Experimental conditions: surface plasmon resonance (SPR) assay; read-out: WDR5 binding affinity (KD)
Quantity name: Kd (nM)

Answered examples (3):
{"Compound": "CC(=O)Nc1ccc(-c2cc(NC(=O)c3c[nH]c(=O)cc3C(F)(F)F)c(N3CCN(C)C(C)C3)cc2F)cn1 (stereo in doubt)", "Measured target": "WDR5 (Homo sapiens (Human), UniProt P61964)", "Unit symbol": "nM", "Reported": 0.24}
{"Compound": "C[C@@H]1CN(c2cc(F)c(-c3ccnc(OCC(C)(C)C)c3)cc2NC(=O)c2c[nH]c(=O)cc2C(F)(F)F)C[C@H](C)N1C", "Measured target": "WDR5 (Homo sapiens (Human), UniProt P61964)", "Unit symbol": "nM", "Reported": 3}
{"Compound": "C[C@@H]1CN(c2cc(F)c(C3=CCN(CC4CC4)CC3)cc2NC(=O)c2c[nH]c(=O)cc2C(F)(F)F)C[C@H](C)N1C", "Measured target": "WDR5 (Homo sapiens (Human), UniProt P61964)", "Unit symbol": "nM", "Reported": 7.46}

I: CC1CN(c2ncc(-c3cc(NC(=O)c4c[nH]c(=O)cc4C(F)(F)F)c(N4C[C@@H](C)N(C)[C@@H](C)C4)cc3F)cn2)CCO1 (stereo in doubt)
II: C[C@@H]1CN(c2cc(F)c(C3=CCN(Cc4cccnc4)CC3)cc2NC(=O)c2c[nH]c(=O)cc2C(F)(F)F)C[C@H](C)N1C
III: COc1cc(F)cc(C(=O)Nc2cc(-c3cnc(N4CCOCC4)nc3)c(F)cc2N2C[C@@H](C)N(C)[C@@H](C)C2)c1
IV: C[C@@H]1CN(c2cc(F)c(-c3cnc(N4CCOCC4)nc3)cc2NC(=O)c2ccc(F)cc2C(F)(F)F)C[C@H](C)N1C
Prompt line: Ordering criterion: Kd; begin with the maximum. Would you mind listing the labels in the order asked for?
Response line: III, II, IV, I

1: C[C@@H]1CN(c2cc(F)c(-c3cnc(N4CCOCC4)nc3)cc2NC(=O)c2ccc(O)cc2C(F)(F)F)C[C@H](C)N1C
2: C[C@@H]1CN(c2ncc(-c3cc(NC(=O)c4c[nH]c(=O)cc4C(F)(F)F)c(N4C[C@@H](C)N(C)[C@@H](C)C4)cc3F)cn2)C[C@H](C)O1
3: C[C@@H]1CN(c2cc(F)c(C3=CCCN(C(=O)N(C)C)C3)cc2NC(=O)c2c[nH]c(=O)cc2C(F)(F)F)C[C@H](C)N1C
Prompt line: Order these by Kd, descending, and give the full ranking. Answer format: list of labels, ordered as asked.
Response line: 1, 3, 2
(1: 8.9 nM, 3: 1.75 nM, 2: 1 nM)

====

Measured target: WDR5 (Homo sapiens (Human), UniProt P61964)
Measurement protocol: Surface Plasmon Resonance (SPR) assay, KD and residence time
Format: binding
Experimental conditions: surface plasmon resonance (SPR) assay; read-out: WDR5 binding affinity (KD)
pKd: −log10 of the molar value.
Quantity name: pKd

{"Compound": "C[C@@H]1CN(c2cc(F)c(-c3cnc(N4CCCC4)nc3)cc2NC(=O)c2cn(C)c(=O)cc2C(F)(F)F)C[C@H](C)N1C", "pKd": 8.41}
{"Compound": "CC1CN(c2cc(F)c(-c3ccc(N(C)C)nc3)cc2NC(=O)c2c[nH]c(=O)cc2C(F)(F)F)CCN1C (stereo in doubt)", "pKd": 8.85}

A: C[C@@H]1CN(c2cc(F)c(-c3ccc(N(C)C)nc3)cc2NC(=O)c2c[nH]c(=O)cc2C(F)(F)F)C[C@H](C)N1C
B: C[C@@H]1CN(c2cc(F)c(-c3cnc(N4CCOCC4)nc3)cc2NC(=O)c2cccc3c2OCO3)C[C@H](C)N1C
C: C[C@@H]1CN(c2ncc(-c3cc(NC(=O)c4cn(C)c(=O)cc4C(F)(F)F)c(N4C[C@@H](C)N(C)[C@@H](C)C4)cc3F)cn2)C[C@H](C)O1
Prompt line: Arrange the 3 compounds from largest to smallest pKd. Reply: labels, ordered per the request.
Response line: A, C, B

====

Measured target: WDR5 (Homo sapiens (Human), UniProt P61964)
Measurement protocol: Surface Plasmon Resonance (SPR) assay, KD and residence time
Assay type: binding
Experimental conditions: surface plasmon resonance (SPR); read-out: WDR5 binding affinity (KD)
Procedure: (i) Surface Plasmon Resonance (SPR) Assay The lifetime of a drug on its target is determined by two rate constants: the association rate constant (kon) and the dissociation rate constant (koff). […] Drug-target residence time is defined as the reciprocal of koff (τ=1/koff), making the residence time a parameter that is easily measured by routine in vitro assay methods.
Quantity name: Kd (nM)

Solved cases (5 shown):
{"Compound": "C[C@@H]1CN(c2cc(F)c(-c3nc(CN4CCOCC4)cs3)cc2NC(=O)c2c[nH]c(=O)cc2C(F)(F)F)C[C@H](C)N1C", "Reported": 1.71}
{"Compound": "C[C@@H]1CN(c2cc(F)c(-c3ncc(C(=O)N(C)C4CCCCC4)s3)cc2NC(=O)c2c[nH]c(=O)cc2C(F)(F)F)C[C@H](C)N1C", "Reported": 3.4}
{"Compound": "C[C@@H]1CN(c2cc(F)c(-c3ccnc(OC4CCOCC4)n3)cc2NC(=O)c2c[nH]c(=O)cc2C(F)(F)F)C[C@H](C)N1C", "Reported": 2.53}
{"Compound": "C[C@@H]1CN(c2ccc(-c3cc(NC(=O)c4ccc(F)cc4C(F)(F)F)c(N4C[C@@H](C)N(C)[C@@H](C)C4)cc3F)cn2)C[C@H](C)O1", "Reported": 2.31}
{"Compound": "C[C@@H]1CN(c2ccc(-c3cc(NC(=O)c4cn(C)c(=O)cc4C(F)F)c(N4CCN(C)[C@H](C)C4)cc3F)cn2)CCO1 (stereo in doubt)", "Reported": 3.39}

I: CC1CN(c2cc(F)c(-c3ccc(C(N)=O)c(F)c3)cc2NC(=O)c2ccc(F)cc2C(F)(F)F)CCN1C (stereo in doubt)
II: C[C@@H]1CN(c2cc(F)c(-c3ccc(F)c(C(N)=O)c3)cc2NC(=O)c2ccc(F)cc2C(F)(F)F)C[C@H](C)N1C
III: C[C@@H]1CN(c2cc(F)c(-c3ccc(C(=O)NCC4CC4)c(F)c3)cc2NC(=O)c2c[nH]c(=O)cc2C(F)(F)F)C[C@H](C)N1C
IV: C[C@@H]1CN(c2cc(F)c(-c3cnc4c(c3)CC(=O)N4)cc2NC(=O)c2c[nH]c(=O)cc2C(F)(F)F)C[C@H](C)N1C
V: C[C@@H]1CN(c2cc(F)c(-c3cnn(CCN4CCOCC4)c3)cc2NC(=O)c2cn(C)c(=O)cc2C(F)F)C[C@H](C)N1C
Prompt line: # desc sort on Kd across 5 compounds Lab note: record answer as labels in requested order.
Response line: V, II, III, I, IV
(V: 21.6 nM, II: 10.4 nM, III: 4.23 nM, I: 2.94 nM, IV: 0.896 nM)
